The measurements presented in this section are drawn from patent EP4624465A1.

Hi there, I'd appreciate the recorded IC50 for every entry that follows.
# STUDY SYSTEM: DDR1 kinase (Homo sapiens, UniProt Q08345)
# EXPERIMENT SUMMARY: Evaluation of DDR1 kinase inhibition (LANCE Ultra TR-FRET kinase assay)
# Format: biochemical
# Set-up: purchased Carna Biosciences 08-113
# ASSAY CONTEXT: DDR1 protein 0.5 nM, LANCE Ultra ULight-poly GAT substrate, 2 hours at room temperature, duplicate; read-out: DDR-1 IC50
# Sequence (Q08345 19-876 isoform Q08345-2 limits assumed): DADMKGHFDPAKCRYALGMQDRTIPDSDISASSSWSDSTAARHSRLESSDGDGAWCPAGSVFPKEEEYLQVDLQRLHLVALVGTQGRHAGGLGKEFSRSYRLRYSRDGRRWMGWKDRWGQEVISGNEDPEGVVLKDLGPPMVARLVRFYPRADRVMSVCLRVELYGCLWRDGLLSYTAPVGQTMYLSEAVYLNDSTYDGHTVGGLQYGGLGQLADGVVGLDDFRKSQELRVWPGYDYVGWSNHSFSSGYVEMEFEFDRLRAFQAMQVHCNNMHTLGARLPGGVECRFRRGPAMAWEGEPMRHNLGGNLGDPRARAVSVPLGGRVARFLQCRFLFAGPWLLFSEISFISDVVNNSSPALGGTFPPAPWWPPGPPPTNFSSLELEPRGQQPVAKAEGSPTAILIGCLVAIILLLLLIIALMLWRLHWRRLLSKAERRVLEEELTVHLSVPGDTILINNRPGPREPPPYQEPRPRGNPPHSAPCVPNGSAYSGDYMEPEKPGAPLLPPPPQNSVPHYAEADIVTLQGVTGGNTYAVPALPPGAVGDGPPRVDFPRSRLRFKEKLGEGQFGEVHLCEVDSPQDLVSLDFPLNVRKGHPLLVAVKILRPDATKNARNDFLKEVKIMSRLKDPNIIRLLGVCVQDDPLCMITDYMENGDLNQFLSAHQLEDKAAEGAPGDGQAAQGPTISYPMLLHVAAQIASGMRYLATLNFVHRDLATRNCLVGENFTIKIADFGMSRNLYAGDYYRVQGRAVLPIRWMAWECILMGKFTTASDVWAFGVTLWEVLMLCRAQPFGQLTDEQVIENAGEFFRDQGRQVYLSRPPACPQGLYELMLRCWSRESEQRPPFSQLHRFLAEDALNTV
The response must be a number in nM with no trailing unit.

Q: Which IC50 is reported for this compound? Nc1cc(C(=O)N2CC(c3nn(CC4CCC(F)(F)CC4)c4cc(F)cc(F)c34)C2)ccn1 [Compound E-57]
Result: 140

Q: Which IC50 is reported for this compound? Nc1cc(C(=O)N2CC(c3nn(CC(=O)NC45CC(C4)C5)c4cccc(F)c34)C2)ccn1 [Compound E-239]
Result: 3.3

Q: Which IC50 is reported for this compound? Nc1cc(C(=O)N2CC=C(c3nn(CC(=O)N4CCC[C@H]4C(F)(F)F)c4ccccc34)CC2)c(F)cn1 [Compound E-47]
Result: 140

Q: Which IC50 is reported for this compound? Nc1nc(C(F)(F)F)c(C(=O)N2CC(c3nn(CC(=O)N4CCC[C@H]4C(F)(F)F)c4cc(F)cc(F)c34)C2)s1 [Compound E-139]
Result: 18

---

# STUDY SYSTEM: DDR1 kinase (Homo sapiens, UniProt Q08345)
# EXPERIMENT SUMMARY: Evaluation of DDR1 kinase inhibition in DDR1-expressing U2OS cells (type I collagen stimulation, PathHunter detection)
# Assay type: cell-based
# Parameters: host or cells: U2OS
# ASSAY CONTEXT: type I collagen 50 µg/mL stimulation, duplicate, read-out: DDR-1 IC50
# Sequence (Q08345 19-913): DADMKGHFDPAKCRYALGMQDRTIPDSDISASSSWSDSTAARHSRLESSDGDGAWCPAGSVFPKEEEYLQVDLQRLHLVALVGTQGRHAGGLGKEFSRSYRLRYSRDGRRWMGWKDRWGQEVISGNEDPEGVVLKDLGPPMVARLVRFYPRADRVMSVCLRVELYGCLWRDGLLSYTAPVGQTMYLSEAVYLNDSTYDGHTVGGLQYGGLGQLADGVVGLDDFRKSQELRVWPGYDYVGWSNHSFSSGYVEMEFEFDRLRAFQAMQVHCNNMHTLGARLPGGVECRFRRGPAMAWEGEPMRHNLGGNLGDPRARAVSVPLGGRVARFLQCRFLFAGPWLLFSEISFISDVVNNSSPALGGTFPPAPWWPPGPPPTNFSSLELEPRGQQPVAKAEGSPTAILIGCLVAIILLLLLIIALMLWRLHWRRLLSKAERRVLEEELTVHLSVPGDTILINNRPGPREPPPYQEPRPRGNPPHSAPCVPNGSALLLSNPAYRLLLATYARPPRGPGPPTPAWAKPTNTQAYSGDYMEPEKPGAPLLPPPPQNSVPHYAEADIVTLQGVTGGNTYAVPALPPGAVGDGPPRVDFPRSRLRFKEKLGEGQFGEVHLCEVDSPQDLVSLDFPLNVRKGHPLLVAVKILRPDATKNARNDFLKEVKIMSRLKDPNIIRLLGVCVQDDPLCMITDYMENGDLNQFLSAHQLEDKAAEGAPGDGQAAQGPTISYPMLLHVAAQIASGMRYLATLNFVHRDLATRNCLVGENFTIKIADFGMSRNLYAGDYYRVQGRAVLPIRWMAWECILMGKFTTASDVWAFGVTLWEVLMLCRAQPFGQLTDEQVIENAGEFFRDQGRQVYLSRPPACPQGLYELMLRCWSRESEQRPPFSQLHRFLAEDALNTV
Structures can show the parent of a compound that is named as a salt.
Hi there, I'd appreciate the recorded IC50 for every entry that follows.
The response must be a number in nM with no trailing unit.

Q: Which IC50 is reported for this compound? Nc1cc(C(=O)N2CC(c3nn(Cc4cn(CC5CC(F)(F)C5)nn4)c4cccc(F)c34)C2)ccn1 [Compound E-19, hydrochloride]
Result: 84

Q: Which IC50 is reported for this compound? Nc1cc(C(=O)N2CCC(c3nn(CC(=O)N4CCO[C@@H](C(F)(F)F)C4)c4cccc(F)c34)CC2)ccn1 [Compound E-91]
Result: 610

Q: Which IC50 is reported for this compound? CCNc1cc(C(=O)N2CC(c3nn(CC(=O)NCC(F)(F)F)c4cccc(Cl)c34)C2)ccn1 [Compound E-64, hydrochloride]
Result: 180

Q: Which IC50 is reported for this compound? Nc1ncc(F)c(C(=O)N2CC(c3nn(CC(=O)N4CCC[C@H]4C(F)(F)F)c4ccccc34)C2)n1 [Compound E-22]
Result: 18

Q: Which IC50 is reported for this compound? CN(C(=O)Cn1nc(C2CN(C(=O)c3cc(N)ncc3F)C2)c2ccccc21)C1CC(F)(F)C1 [Compound E-250]
Result: 17

Q: Which IC50 is reported for this compound? Nc1cc(C(=O)N2CC(c3nn(Cc4cn(CC5CCC5)nn4)c4cccc(F)c34)C2)ccn1 [Compound E-92, hydrochloride]
Result: 1400

Q: Which IC50 is reported for this compound? Nc1nccc(C(=O)N2CC(c3nn(CC(=O)N4CCC[C@H]4C(F)(F)F)c4ccccc34)C2)c1F [Compound E-196]
Result: 43
